# Test system: Human immunodeficiency virus 1
# test_summary: Antiviral activity against HIV1 RTMDR1 in human TZM-b1 cells after 48 hrs by luciferase reporter gene assay
# Type: functional, organism-based
# conditions: Human immunodeficiency virus 1, RTMDR1, TZM-b1, 48 h
pEC50: −log10 of the molar value.
measurement_name: pEC50

Cc1cc(=O)c2c(CBr)cc3c(c2o1)[C@@H](OC(=O)[C@@]12CC[C@@](C)(C(=O)O1)C2(C)C)[C@@H](OC(=O)[C@@]12CC[C@@](C)(C(=O)O1)C2(C)C)C(C)(C)O3 :: 5.92
CCc1oc2c3c(ccc2c(=O)c1C#N)OC(C)(C)[C@H](OC(=O)[C@@]12CC[C@@](C)(C(=O)O1)C2(C)C)[C@@H]3OC(=O)[C@@]12CC[C@@](C)(C(=O)O1)C2(C)C :: 6.10
CCc1oc2c3c(ccc2c(=O)c1Br)OC(C)(C)[C@H](OC(=O)[C@@]12CC[C@@](C)(C(=O)O1)C2(C)C)[C@@H]3OC(=O)[C@@]12CC[C@@](C)(C(=O)O1)C2(C)C :: 6.00
CNCc1cc(=O)c2ccc3c(c2o1)[C@@H](OC(=O)[C@@]12CC[C@@](C)(C(=O)O1)C2(C)C)[C@@H](OC(=O)[C@@]12CC[C@@](C)(C(=O)O1)C2(C)C)C(C)(C)O3 :: 6.16

Where these numbers come from: ChEMBL document CHEMBL1221394
